src = patent US20180094062A1

Target: T1, human HER1 Extracellular Domain (HER1 ECD) (human, UniProt P00533 25-645)
T1 construct: also called EGFR ECD
Assay: ELISA, antigen coated, hybridoma supernatant

>  <binder>
anti-HER3 antibody M-17-07 (antibody, V domains shown, mouse hybridoma clone) VH: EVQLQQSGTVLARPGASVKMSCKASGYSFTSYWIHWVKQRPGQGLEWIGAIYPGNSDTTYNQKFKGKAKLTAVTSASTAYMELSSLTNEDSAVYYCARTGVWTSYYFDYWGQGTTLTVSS VL: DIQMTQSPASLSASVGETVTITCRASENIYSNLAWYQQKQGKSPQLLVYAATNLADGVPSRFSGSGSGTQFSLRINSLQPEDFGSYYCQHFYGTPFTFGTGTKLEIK

>  <value-unit>
OD

>  <OD 405 nm>
0.025

$$$$
>  <binder>
anti-HER3 antibody M-43-01 (antibody, V domains shown, mouse hybridoma clone) VH: EVQLQQSGTVLARPGASVKMSCKASDYTFSNYWVHWVKQRPGQGLEWIGAIYPGNGDSTYYQKFKGKATLTAVTSTSTAYMDLSSLTNGDSAVYFCTRSGVGYNYYFDYWGQGTTLTVSS VL: DIQMTQSPASLSASVGETVTITCRASENIYSNLAWYQQKQGKSPQLLVYIATNLADGVPSRFSGSGSGTQFSLKINSLQPEDLGSYYCQHFYGTPFTFGTGTKLEIE

>  <value-unit>
OD

>  <OD 405 nm>
0.043

$$$$
>  <binder>
anti-HER3 antibody M-17-02 (antibody, V domains shown, mouse hybridoma clone) VH: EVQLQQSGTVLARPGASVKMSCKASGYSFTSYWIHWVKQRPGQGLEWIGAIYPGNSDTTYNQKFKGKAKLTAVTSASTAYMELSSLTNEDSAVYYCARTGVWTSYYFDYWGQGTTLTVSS VL: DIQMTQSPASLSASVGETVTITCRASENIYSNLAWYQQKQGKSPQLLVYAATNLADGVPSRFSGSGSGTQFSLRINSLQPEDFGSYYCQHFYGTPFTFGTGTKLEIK

>  <value-unit>
OD

>  <OD 405 nm>
0.028

$$$$
